Measured Target: Human mGlu3 (Homo sapiens)
Sequence (Q14832 23-879): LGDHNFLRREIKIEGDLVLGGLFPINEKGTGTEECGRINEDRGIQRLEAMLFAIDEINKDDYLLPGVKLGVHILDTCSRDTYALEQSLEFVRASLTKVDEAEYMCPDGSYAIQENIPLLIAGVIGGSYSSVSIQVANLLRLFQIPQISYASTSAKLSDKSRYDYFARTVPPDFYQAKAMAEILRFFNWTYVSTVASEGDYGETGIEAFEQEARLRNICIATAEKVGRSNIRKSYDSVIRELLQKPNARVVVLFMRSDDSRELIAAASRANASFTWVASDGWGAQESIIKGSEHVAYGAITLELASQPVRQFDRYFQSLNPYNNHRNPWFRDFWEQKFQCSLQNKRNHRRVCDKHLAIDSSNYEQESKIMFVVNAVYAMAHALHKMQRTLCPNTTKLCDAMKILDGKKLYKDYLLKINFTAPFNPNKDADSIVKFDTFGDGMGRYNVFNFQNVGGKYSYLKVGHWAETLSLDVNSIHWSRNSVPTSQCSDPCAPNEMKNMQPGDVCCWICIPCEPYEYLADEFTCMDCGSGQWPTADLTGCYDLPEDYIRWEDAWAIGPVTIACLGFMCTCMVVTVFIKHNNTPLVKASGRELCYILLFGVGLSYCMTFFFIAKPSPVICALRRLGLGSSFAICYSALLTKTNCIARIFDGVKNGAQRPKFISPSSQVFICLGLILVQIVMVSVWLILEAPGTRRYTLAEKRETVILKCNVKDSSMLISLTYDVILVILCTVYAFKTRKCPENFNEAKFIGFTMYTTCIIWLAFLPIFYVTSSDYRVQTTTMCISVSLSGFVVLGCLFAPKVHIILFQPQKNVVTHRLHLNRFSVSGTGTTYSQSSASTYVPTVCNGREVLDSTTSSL
Experiment: mGlu receptor in vitro assay, human mGlu3
Assay type: cell-based
Measured Quantity: pEC50
Numbers only, as −log10 of the molar value.

Below are worked cases with known answers.
[
  {
    "Structure Smiles String": "COc1ccc(C(=O)O)cc1OC/C=C/COc1ccc(C(=O)CC(C)(C)C)c(O)c1C",
    "Measured Target": "Human mGlu3 (Homo sapiens)",
    "pEC50": 7.21
  },
  {
    "Structure Smiles String": "Cc1c(C(=O)O)cccc1-c1noc(COc2ccc(C(=O)CC(C)(C)C)c(O)c2C)n1",
    "Measured Target": "Human mGlu3 (Homo sapiens)",
    "pEC50": 6.83
  },
  {
    "Structure Smiles String": "COc1ccc(C(=O)O)cc1OCC#CCOc1ccc(C(=O)CC(C)(C)C)c(O)c1C",
    "Measured Target": "Human mGlu3 (Homo sapiens)",
    "pEC50": 7.80
  },
  {
    "Structure Smiles String": "COc1ccc(C(=O)O)cc1OCCCCCCCOc1ccc(C(=O)CC(C)(C)C)c(O)c1C",
    "Measured Target": "Human mGlu3 (Homo sapiens)",
    "pEC50": 5.98
  },
  {
    "Structure Smiles String": "CCCC(=O)c1ccc(OC/C=C/COc2cccc(C(=O)O)c2C)c(C)c1O",
    "Measured Target": "Human mGlu3 (Homo sapiens)",
    "pEC50": 6.27
  }
]

Kindly consider the entry below.
[in] Please give the measured pEC50 for this molecule: Cc1c(OCc2cnc(-c3ccc(C(=O)O)cc3Cl)cn2)ccc(C(=O)CC(C)(C)C)c1O
[out] 6.24

The measured values listed here are drawn from patent US20250179000A1.
